Molecular target: intracellular phosphorylation of EGFR (Tyr1068) in PC-9 cells (Homo sapiens, UniProt P00533, DEL746-750)
Sequence (P00533 with tags, fused parts or gaps DEL746-750): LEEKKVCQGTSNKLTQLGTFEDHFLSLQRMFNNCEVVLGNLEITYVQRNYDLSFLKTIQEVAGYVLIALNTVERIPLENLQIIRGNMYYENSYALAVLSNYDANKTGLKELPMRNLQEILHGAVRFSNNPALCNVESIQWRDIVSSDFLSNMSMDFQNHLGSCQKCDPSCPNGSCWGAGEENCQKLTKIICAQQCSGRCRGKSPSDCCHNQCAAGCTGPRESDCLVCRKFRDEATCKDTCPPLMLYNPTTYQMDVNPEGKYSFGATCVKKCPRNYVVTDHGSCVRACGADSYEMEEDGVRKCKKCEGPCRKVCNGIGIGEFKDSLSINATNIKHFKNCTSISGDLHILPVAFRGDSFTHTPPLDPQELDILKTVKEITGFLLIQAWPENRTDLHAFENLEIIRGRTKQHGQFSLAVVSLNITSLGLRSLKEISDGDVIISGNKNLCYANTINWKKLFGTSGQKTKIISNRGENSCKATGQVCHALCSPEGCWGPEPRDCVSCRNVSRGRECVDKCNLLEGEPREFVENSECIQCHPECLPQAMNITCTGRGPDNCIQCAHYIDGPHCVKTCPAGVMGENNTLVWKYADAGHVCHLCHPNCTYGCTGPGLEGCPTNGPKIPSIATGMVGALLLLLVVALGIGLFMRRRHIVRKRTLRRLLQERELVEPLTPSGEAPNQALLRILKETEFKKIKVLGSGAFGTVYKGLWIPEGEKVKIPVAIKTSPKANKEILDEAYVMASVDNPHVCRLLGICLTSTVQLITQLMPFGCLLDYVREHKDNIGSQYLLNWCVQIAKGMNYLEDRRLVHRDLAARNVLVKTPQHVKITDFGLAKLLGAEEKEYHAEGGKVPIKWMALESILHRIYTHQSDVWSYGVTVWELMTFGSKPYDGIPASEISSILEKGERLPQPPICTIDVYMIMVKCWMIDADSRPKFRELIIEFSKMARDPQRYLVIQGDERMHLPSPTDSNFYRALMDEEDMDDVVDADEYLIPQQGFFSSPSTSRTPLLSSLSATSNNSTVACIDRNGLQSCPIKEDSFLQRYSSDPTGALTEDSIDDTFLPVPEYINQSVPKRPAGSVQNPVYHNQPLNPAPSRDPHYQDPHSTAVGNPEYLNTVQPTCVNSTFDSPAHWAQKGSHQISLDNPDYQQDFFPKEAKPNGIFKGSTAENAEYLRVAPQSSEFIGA
Experiment: PC-9 pEGFR AlphaLISA assay
Settings: 4 hours incubation, read-out: Phos EGFR PC9 IC50
pIC50: −log10 of the molar value.
Provide the recorded pIC50 for the entries that follow.

Qu. Which pIC50 is reported for this molecule? COc1cc(O[C@H](C)C2COC2)c2c(Nc3ccc4ncsc4c3F)ncnc2c1 (single isomer, unassigned) [Example 83]
Ans. ≥ 8.00

Qu. And C[C@@H](Oc1cc(N2CCN(C)CC2)cc2ncnc(Nc3ccc4ncsc4c3F)c12)C1COC1 (single isomer, unassigned) [Example 94] ?
Ans. 7.30 to 8.00

Qu. And Cn1ccc(-c2cc3ncnc(Nc4ccc5ncsc5c4)c3cc2NC(=O)CCN2CCCCC2)n1 ?
Ans. ≥ 8.00

Qu. And C[C@@H](Oc1cc(N2CCN(C)CC2)cc2ncnc(Nc3ccc4ncsc4c3F)c12)[C@@H]1CCCO1 ?
Ans. 7.30 to 8.00

Qu. And CC(C)N1CC[C@@H](Oc2cc(-c3cnn(C)c3)cc3ncnc(Nc4ccc5ncsc5c4)c23)C1=O (single isomer, unassigned) [Example 64] ?
Ans. 7.30 to 8.00

Qu. And CN(C)C1CCC(Oc2cc(-c3cnn(C)c3)cc3ncnc(Nc4ccc5ncsc5c4)c23)CC1 (stereo not drawn) ?
Ans. ≥ 8.00

Qu. And CN(C)C1CCC1Oc1cc(-c2cnn(C)c2)cc2ncnc(Nc3ccc4ncsc4c3)c12 (stereo not drawn) ?
Ans. 7.30 to 8.00

Qu. And CCN1CCC(Oc2cc(-c3cnn(C)c3)cc3ncnc(Nc4ccc5ncsc5c4)c23)CC1 ?
Ans. ≥ 8.00

Qu. And Cn1cc(-c2cc(OC3COC3)c3c(Nc4ccc5ncsc5c4)ncnc3c2)cn1 ?
Ans. ≥ 8.00

Qu. And CN(C)CC1(COc2cc(-c3cnn(C)c3)cc3ncnc(Nc4ccc5ncsc5c4)c23)COC1 ?
Ans. 7.30 to 8.00

Qu. And CN1CC[C@H](Oc2cc(-c3cnn(C)c3)cc3ncnc(Nc4ccc5ncsc5c4)c23)[C@@H](F)C1 (racemic) [Example 343] ?
Ans. ≥ 8.00

Qu. And CN1CC[C@H](Oc2cc(-c3cnn(C)c3)cc3ncnc(Nc4ccc5ncsc5c4F)c23)C1=O (single isomer, unassigned) [Example 73] ?
Ans. 7.30 to 8.00

Qu. And C[C@@H](O)[C@@H](C)Oc1cc(-c2cnn(C)c2)cc2ncnc(Nc3ccc4ncsc4c3)c12 ?
Ans. ≥ 8.00

Qu. And C[C@@H](Oc1cc(N2CCN(C)CC2)cc2ncnc(Nc3ccc4ncsc4c3F)c12)[C@H]1CCCO1 ?
Ans. ≥ 8.00

Qu. And Cn1cc(-c2cc(O[C@@H]3CNC[C@H](F)C3)c3c(Nc4ccc5ncsc5c4)ncnc3c2)cn1 (single isomer, unassigned) [Example 334] ?
Ans. 7.30 to 8.00
